assay: Metabolic stability in human microsomes assessed as parent compound remaining after 45 mins; type: ADME, Microsome; settings: read-out: Stability
For each record, write down the corresponding remaining at 0.75 h.
Give bare numbers, in %.

Consider the worked cases shown below.
1) [2H]C([2H])([2H])C([2H])([2H])N1CCN(Cc2ccc(Nc3ncc(F)c(-c4cc(F)c5nc(C)n(C(C)C)c5c4)n3)nc2)CC1	6.21
2) [2H]C([2H])([2H])C([2H])([2H])N1C([2H])([2H])C([2H])([2H])N(Cc2ccc(Nc3ncc(F)c(-c4cc(F)c5nc(C)n(C(C)C)c5c4)n3)nc2)C([2H])([2H])C1([2H])[2H]	9.86

// input: 2 compounds below; output: remaining at 0.75 h for each
1. CCN1CCN(Cc2ccc(Nc3ncc(F)c(-c4cc(F)c5nc(C)n(C(C)C)c5c4)n3)nc2)CC1 [ABEMACICLIB]
2. [2H]c1nc(Nc2ncc(F)c(-c3cc(F)c4nc(C)n(C(C)C)c4c3)n2)c([2H])c([2H])c1CN1CCN(C([2H])([2H])C([2H])([2H])[2H])CC1

1: 4.76; 2: 6.48
